# MEASURED_ON: Amyloid-beta precursor protein (Homo sapiens, UniProt P05067)
# Sequence (P05067 whole entry): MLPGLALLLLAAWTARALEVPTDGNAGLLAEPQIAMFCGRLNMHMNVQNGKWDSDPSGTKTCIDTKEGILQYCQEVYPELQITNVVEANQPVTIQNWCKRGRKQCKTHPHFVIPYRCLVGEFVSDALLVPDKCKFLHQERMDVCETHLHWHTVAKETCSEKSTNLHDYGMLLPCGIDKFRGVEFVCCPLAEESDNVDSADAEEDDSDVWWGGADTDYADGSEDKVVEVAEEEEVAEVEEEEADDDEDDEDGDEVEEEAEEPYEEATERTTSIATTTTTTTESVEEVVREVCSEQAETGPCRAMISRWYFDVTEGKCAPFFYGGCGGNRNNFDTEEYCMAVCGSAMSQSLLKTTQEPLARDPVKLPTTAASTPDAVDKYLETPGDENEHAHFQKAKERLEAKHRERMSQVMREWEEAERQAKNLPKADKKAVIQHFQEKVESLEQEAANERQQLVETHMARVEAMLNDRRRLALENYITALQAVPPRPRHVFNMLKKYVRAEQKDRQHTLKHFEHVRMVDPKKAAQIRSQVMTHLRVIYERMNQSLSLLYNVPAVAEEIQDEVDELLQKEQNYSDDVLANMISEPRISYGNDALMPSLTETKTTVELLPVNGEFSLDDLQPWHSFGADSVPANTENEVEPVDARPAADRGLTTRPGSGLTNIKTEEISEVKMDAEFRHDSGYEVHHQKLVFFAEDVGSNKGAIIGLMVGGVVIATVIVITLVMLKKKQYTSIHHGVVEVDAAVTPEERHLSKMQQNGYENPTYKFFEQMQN
pKi: −log10 of the molar value.
READOUT_LABEL: pKi

{"columns": ["MOLECULE", "MEASURED_ON", "pKi"],
 "data": [
  ["COc1ccc(-c2ccc(-c3ccc(N)cc3)s2)cc1", "Amyloid-beta precursor protein (Homo sapiens, UniProt P05067)", 8.25],
  ["COc1ccc(-c2ccc(-c3ccc(N(C)C)cc3)s2)cc1", "Amyloid-beta precursor protein (Homo sapiens, UniProt P05067)", 6.30]
]}

(I) COc1ccccc1-c1ccc(-c2ccccc2OC)s1
(II) COc1ccc(-c2ccc(-c3ccc(NCCF)cc3)s2)cc1
Incoming: Lab note: check whether I or II has the lower measured pKi. Reply with the label of the item you choose.
Outgoing: I
(I: 6.20, II: 7.67)
